Assay: Metabolic stability in mouse plasma assessed as compound remaining after 1 hr
Assay type: ADME, cell-free
Conditions: read-out: Stability
ASSAY_READOUT: remaining at 1 h (%)
Express it in %; write the number only.

Q: Given the entry Nc1nc(N)nc(Nc2ccc([As]3SCC(CO)S3)cc2)n1 (stereo unspecified) , report its measured remaining at 1 h.
Result: 100

###

Attribute: CC50 at 48 h
Assay: Cytotoxicity against human TZM-bl cells assessed as cell viability after 48 hrs by WST1 assay
Type: cell-based

Q: Given the entry Cc1cc(C#N)cc(C)c1Oc1nc(Nc2ccc(C#N)cc2)nc(N)c1Br [ETRAVIRINE] , report its measured CC50 at 48 h.
Result: > 25 µM

###

Assay: Metabolic stability in mouse liver microsomes assessed as compound remaining after 15 mins by UPLC analysis
Format: ADME
Details: read-out: Stability
ASSAY_READOUT: remaining at […]
Reply with the number and its unit after it.

Q: Given the entry Nc1nc(N)nc(Nc2ccc([As]3SCC(CO)S3)cc2)n1 (stereo unspecified) [MELARSOPROL] , report its measured remaining at […].
Result: 72%

###

Assay: Solubility of the compound in 10 mM PBS buffer solution at pH7.4 at 3.125 to 200 uM after 2 hrs
Type: physicochemical
Conditions: pH 7.4
ASSAY_READOUT: solubility at 2 h (µM)
Express it in µM; write the number only.

Q: Given the entry Nc1nc(N)nc(Nc2ccc([As]3SCC(CO)S3)cc2)n1 (stereo unspecified) , report its measured solubility at 2 h.
Result: 25

###

Assay: Stability of the compound in PBS buffer assessed as recovery at pH 7.4 measured after 24 hrs by UPLC analysis
Format: physicochemical
Conditions: read-out: Drug recovery
ASSAY_READOUT: remaining at 24 h (%)
Express it in %; write the number only.

Q: Given the entry Nc1nc(N)nc(Nc2ccc([As]3SCC(CO)S3)cc2)n1 (stereo unspecified) , report its measured remaining at 24 h.
Result: 100

###

Assay: Cytotoxicity against human TZM-bl cells assessed as cell viability after 48 hrs by WST1 assay
Type: cell-based
Attribute: CC50 at 48 h

A selection of reference data follows.
CC(C)=CCOc1cc(NC(=S)c2ccoc2C)ccc1Cl :: > 100 µM
CCc1nn(CCO)c(CC)c1Oc1cc(C#N)cc(C#N)c1 :: > 100 µM
NS(=O)(=O)c1ccc(Oc2ccc(NC(=O)N[C@H]3[C@@H]4COc5c(F)ccc(F)c5[C@@H]43)nc2)cc1 :: > 100 µM
Cc1ccnc2c1NC(=O)c1cccnc1N2C1CC1 :: > 50 µM
CC(C)Nc1cccnc1N1CCN(C(=O)c2cc3cc(NS(C)(=O)=O)ccc3[nH]2)CC1 :: > 50 µM
Cc1cc(C)c(Nc2ccnc(Nc3ccc(C#N)cc3)n2)c(C)c1 :: 2.47 µM

Then this compound:
Q: Given the entry O=C1Nc2ccc(Cl)cc2[C@@](C#CC2CC2)(C(F)(F)F)O1 , report its measured CC50 at 48 h.
Result: > 50 µM
